Items are presented alongside their recorded growth inhibition.
- Run description: NCI Yeast Anticancer Drug Screen. Data for the mgt1 strain (AID 153)
- Test context: S. cerevisiae mgt1 mutant growth inhibition; at 11.0 µM; active compounds read high
- Method: Growth inhibition of yeast strains with defined genetic alterations is measured as a screen for potential anti-cancer activity. Selected strains with alterations in DNA damage repair or cell cycle control were exposed to compounds and growth inhibition was measured relative to vehicle treated controls. The strain used in this assay is mgt1
About 79,000 compounds went through this panel and 15% of them were active in at least one assay; those are over-represented in the sample as a whole.
Quick note: give the figure in %, leave out the unit.

In [3]: df
Out[3]:
                                   compound      endpoint_name  unit_annotation  meas_value
0  NCCNCCNc1ccc(NCCNCCN)c2c1C(=O)c1c(O)ccc(O)c1C2=O  growth inhibition                %           1

IN: Which growth inhibition reading was recorded for the compound `c1ccc(Cc2cc(-c3ccccc3)n[nH]2)cc1` ?
OUT: -11

IN: So what's the measured growth inhibition for this one? `COc1ccc(/C=C/c2sc3ccccc3[n+]2CCCCI)cc1OC`
OUT: -4

IN: Given the entry `O=C(/C=C\c1cccc(C(F)(F)F)c1)c1ccccc1` , report its measured growth inhibition.
OUT: -3

IN: Quick one: growth inhibition of `CCCCCCCCCCCC1=NCCO1` ?
OUT: 0

IN: Requested read-out: growth inhibition. Entry: `COc1ccc(C(=O)c2ccccc2C(=O)c2ccccc2OC)cc1`
OUT: -2

IN: Record request: growth inhibition value, item `O=[N+]([O-])c1cccc2nc3ccccc3c(NCCC[N+]3([O-])CCCCC3)c12`
OUT: 5

IN: Any idea what its growth inhibition is? The compound is `COc1oc(C(=O)NC2CCCCC2)c(-c2ccc(Cl)cc2)c1S(=O)(=O)c1ccccc1`
OUT: 60

IN: Would you kindly share the measured growth inhibition for `CCOC(=O)/C(=C\c1ccc(C#N)cc1)C(C)=O` ?
OUT: 38

IN: Reported growth inhibition, compound `CCOC(=O)c1[nH]n(-c2ccccc2)c(=O)c1C=NC(=S)C(N)=S` : ____
OUT: -16

IN: // lookup growth inhibition for `Cc1ccc(Cl)cc1NC(=O)OCCN(C)C(=O)Nc1cc(Cl)ccc1C`
OUT: -29

IN: Name the recorded growth inhibition for CCCCNC1CCC2(SCCS2)c2[nH]c3ccccc3c21 (stereo unspecified) .
OUT: 7

IN: Look up growth inhibition: `Nc1ncc(-c2ccc(Br)cc2)s1`
OUT: 2
